Where do these numbers come from? They come from ChEMBL document CHEMBL1961873.

Target: Fibroblast growth factor receptor 4 (Homo sapiens) (UniProt P22455);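 note: reported figure is the averaged percent inhibition of FGFR4, from the GSK PKIS kinase screening panel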
Sequence (P22455 22-802 limits assumed): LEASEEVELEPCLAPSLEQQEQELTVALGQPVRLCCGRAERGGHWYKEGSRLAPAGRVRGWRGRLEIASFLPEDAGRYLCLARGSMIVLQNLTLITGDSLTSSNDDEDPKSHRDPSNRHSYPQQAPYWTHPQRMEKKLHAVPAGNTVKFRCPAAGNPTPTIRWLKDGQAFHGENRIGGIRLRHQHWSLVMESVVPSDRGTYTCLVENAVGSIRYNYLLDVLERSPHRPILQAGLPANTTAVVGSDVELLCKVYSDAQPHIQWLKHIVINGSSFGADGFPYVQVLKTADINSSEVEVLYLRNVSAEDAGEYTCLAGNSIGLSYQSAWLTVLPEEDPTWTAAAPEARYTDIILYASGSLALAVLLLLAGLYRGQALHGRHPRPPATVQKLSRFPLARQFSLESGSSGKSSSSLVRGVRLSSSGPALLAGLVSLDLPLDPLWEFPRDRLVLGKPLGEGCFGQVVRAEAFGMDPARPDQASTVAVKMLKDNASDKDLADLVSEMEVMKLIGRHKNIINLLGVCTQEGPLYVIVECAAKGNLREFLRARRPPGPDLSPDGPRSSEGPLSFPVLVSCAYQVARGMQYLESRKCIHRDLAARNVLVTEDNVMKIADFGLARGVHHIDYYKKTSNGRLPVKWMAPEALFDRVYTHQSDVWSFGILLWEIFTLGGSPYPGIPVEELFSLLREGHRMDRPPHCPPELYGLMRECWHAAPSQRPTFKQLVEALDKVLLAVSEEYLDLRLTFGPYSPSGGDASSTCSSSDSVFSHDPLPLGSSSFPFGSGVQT
Settings: at 1 µM
Listed here are compounds together with their documented inhibition.
Recorded Endpoint: inhibition (%)

INSERT INTO results (mol, recorded_endpoint, test_result) VALUES
  ('CN(C)c1cc2c(Nc3ccc4nc(Cc5ccccc5)[nH]c4c3)ncnc2cn1', 'inhibition', 13.5),
  ('COc1cc(C=NNc2ncnc3c2cnn3-c2ccccc2)ccc1O', 'inhibition', 3.32),
  ('Nc1ncnc2occ(-c3ccc(NC(=O)Nc4cc(C(F)(F)F)cc(C(F)(F)F)c4)cc3)c12', 'inhibition', 9.49),
  ('COc1cc2ncn(-c3cc(OCc4ccccc4C(F)(F)F)c(C(N)=O)s3)c2cc1OC', 'inhibition', -1.16),
  ('COc1ccc(-c2nn3ncccc3c2-c2ccnc(Nc3ccc(Cl)c(C(F)(F)F)c3)n2)cc1', 'inhibition', 0.98),
  ('COc1cc2ncn(-c3cc(O[C@@H](C)c4ccccc4Cl)c(C(N)=O)s3)c2cc1OC', 'inhibition', 2.7),
  ('CC(=O)Nc1cccc(C#Cc2cncnc2Nc2ccc(OCc3cccc(F)c3)c(Cl)c2)n1', 'inhibition', 0.7),
  ('CS(=O)(=O)CCNCc1nc(-c2ccc3ncnc(Nc4ccc(F)c(Cl)c4)c3c2)cs1', 'inhibition', -0.36),
  ('COc1cc2ncn(-c3cc(O[C@H](C)c4ccccc4Cl)c(C(N)=O)s3)c2cc1OC', 'inhibition', 8.7);

###

Listed here are compounds together with their documented inhibition.
Molecular target: Casein kinase I isoform gamma-3 (Homo sapiens);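 note: mean inhibition of CK1-g3, GSK PKIS screen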
Conditions: at 1 µM
Recorded Endpoint: inhibition (%)

INSERT INTO measurements (compound, display_unit, test_result) VALUES
  ('NC(=O)c1ccc(-c2nc(-c3ccccn3)c(-c3ccc4c(c3)OCO4)[nH]2)cc1', '%', 5.91),
  ('[O-][S+]1CCN(Cc2ccc(-c3ccc4ncnc(Nc5ccc(OCc6ccccc6)c(F)c5)c4c3)o2)CC1', '%', 3.97),
  ('CC1=C(C(=O)Nc2ccc3[nH]ncc3c2)C(c2ccc(Cl)c(Cl)c2)CC(=O)N1 (configuration not stated)', '%', 1.59),
  ('N#Cc1c(NC(=O)c2cccc3ccccc23)sc2c1CCCC2', '%', 2.66),
  ('NS(=O)(=O)c1ccc(N/N=C2\C(=O)Nc3ccc(C(=O)NCCc4c[nH]cn4)cc32)cc1', '%', 16.4),
  ('NC(=O)c1cccc(Nc2nccc(Nc3cccc4[nH]ncc34)n2)c1', '%', 9.56),
  ('COc1cc2ncn(-c3cc(O[C@H](C)c4ccccc4Cl)c(C(N)=O)s3)c2cc1OC', '%', 3.1);

###

Listed here are compounds together with their documented inhibition.
Test system: Mast/stem cell growth factor receptor Kit (Homo sapiens), P10721 [D816V]
Sequence (P10721 whole entry D816V): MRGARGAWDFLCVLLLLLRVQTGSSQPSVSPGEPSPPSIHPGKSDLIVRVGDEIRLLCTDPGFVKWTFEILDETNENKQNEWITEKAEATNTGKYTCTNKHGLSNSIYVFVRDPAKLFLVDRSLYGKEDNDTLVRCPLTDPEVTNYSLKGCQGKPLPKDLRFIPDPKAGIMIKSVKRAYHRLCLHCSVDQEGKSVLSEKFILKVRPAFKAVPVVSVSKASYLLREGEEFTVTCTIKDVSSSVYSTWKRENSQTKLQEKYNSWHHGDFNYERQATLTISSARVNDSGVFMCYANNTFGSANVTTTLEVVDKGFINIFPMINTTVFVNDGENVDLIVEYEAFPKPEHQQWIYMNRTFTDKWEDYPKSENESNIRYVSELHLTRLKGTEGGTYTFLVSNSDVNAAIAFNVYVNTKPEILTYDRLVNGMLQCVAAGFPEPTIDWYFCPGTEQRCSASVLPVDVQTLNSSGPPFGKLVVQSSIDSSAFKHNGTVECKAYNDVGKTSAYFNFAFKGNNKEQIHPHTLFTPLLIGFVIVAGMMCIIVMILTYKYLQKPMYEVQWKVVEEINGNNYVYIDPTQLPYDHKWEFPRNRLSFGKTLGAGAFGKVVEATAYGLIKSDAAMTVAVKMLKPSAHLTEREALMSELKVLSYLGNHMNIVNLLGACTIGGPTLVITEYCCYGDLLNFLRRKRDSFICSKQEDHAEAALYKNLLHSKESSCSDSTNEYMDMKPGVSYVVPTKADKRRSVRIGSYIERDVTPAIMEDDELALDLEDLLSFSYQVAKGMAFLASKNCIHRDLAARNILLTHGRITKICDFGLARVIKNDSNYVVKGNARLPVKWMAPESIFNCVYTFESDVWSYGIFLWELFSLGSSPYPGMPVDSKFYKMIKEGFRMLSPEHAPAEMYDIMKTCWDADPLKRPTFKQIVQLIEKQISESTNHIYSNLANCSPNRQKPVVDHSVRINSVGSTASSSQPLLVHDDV
Conditions: at 0.1 µM
Recorded Endpoint: inhibition (%)

INSERT INTO results (mol, experimental_target, recorded_endpoint, test_result) VALUES
  ('COC(=O)Nc1nc2cc(Oc3ccc(NC(=O)Nc4cccc(C(=O)O)c4)cc3)ccc2[nH]1', 'Mast/stem cell growth factor receptor Kit (Homo sapiens), P10721 [D816V]', 'inhibition', 1.22),
  ('Cc1ccc(C(=O)NC2CCCCC2)cc1-c1ccc(C(=O)NCC2CC2)cc1', 'Mast/stem cell growth factor receptor Kit (Homo sapiens), P10721 [D816V]', 'inhibition', 3.74),
  ('CCc1cccc(NC(=O)Nc2ccc(Oc3ccc4nc(NC(=O)OC)[nH]c4c3)cc2)c1', 'Mast/stem cell growth factor receptor Kit (Homo sapiens), P10721 [D816V]', 'inhibition', 0.55),
  ('COc1cc(C=NNc2ncnc3c2cnn3-c2ccccc2)ccc1O', 'Mast/stem cell growth factor receptor Kit (Homo sapiens), P10721 [D816V]', 'inhibition', 2.68),
  ('Fc1cccc(COc2ccc(Nc3ncnc4sc(-c5cccs5)cc34)cc2Cl)c1', 'Mast/stem cell growth factor receptor Kit (Homo sapiens), P10721 [D816V]', 'inhibition', 4.5),
  ('COc1cccc(-n2ncc3c(N/N=C/c4cccc(F)c4)ncnc32)c1', 'Mast/stem cell growth factor receptor Kit (Homo sapiens), P10721 [D816V]', 'inhibition', 4.05),
  ('CCn1c(-c2nonc2N)nc2c(C#CC(C)(C)O)nc(CN3CCCC3)cc21', 'Mast/stem cell growth factor receptor Kit (Homo sapiens), P10721 [D816V]', 'inhibition', -0.84),
  ('COc1cc2ncn(-c3cc(O[C@@H](C)c4ccccc4Cl)c(C(N)=O)s3)c2cc1OC', 'Mast/stem cell growth factor receptor Kit (Homo sapiens), P10721 [D816V]', 'inhibition', 3.28),
  ('CS(=O)(=O)CCNCc1ccc(-c2ccc3ncnc(Nc4ccc(OCc5cccc(F)c5)c(C(F)(F)F)c4)c3c2)o1', 'Mast/stem cell growth factor receptor Kit (Homo sapiens), P10721 [D816V]', 'inhibition', 5.18),
  ('CCn1c(-c2nonc2N)nc2cncc(C(=O)N3CC[C@H](N)C3)c21', 'Mast/stem cell growth factor receptor Kit (Homo sapiens), P10721 [D816V]', 'inhibition', 5.29);
